# Tested on: HEK-293T
# test.details: Multiplex assay against HEK293T
# Type: toxicity, cell-based
# run.conditions: human, 12 h, 10 µM, compound concentration 10 uM, replicate 2
test.readout: Population Normal (%)

[[record]]
compound = "CC(C)NCC(O)COc1ccc(CCOCC2CC2)cc1.Cl (stereo not drawn) [BETAXOLOL HYDROCHLORIDE]"
units = "%"
experimental_result = 97

[[record]]
compound = "CN(C)CC#Cc1ccc(OCCCc2sc(N3CCc4cccc(C(=O)Nc5nc6ccccc6s5)c4C3)nc2C(=O)O)c(F)c1"
units = "%"
experimental_result = 92

[[record]]
compound = "COc1cc(-n2cnc3cc(-c4ccc(Cl)cc4)sc3c2=O)ccc1OCCN1CCCC1"
units = "%"
experimental_result = 95

[[record]]
compound = "CN(C)C(=O)/C(C#N)=C/c1ccc(-c2nc3cnc4[nH]ccc4c3n2C2CCCCC2)o1"
units = "%"
experimental_result = 74

[[record]]
compound = "OC1(c2ccc(Cl)cc2)CCN(Cc2c[nH]c3ccccc23)CC1"
units = "%"
experimental_result = 90

[[record]]
compound = "Cc1cc(C)cc(-c2cnc3cc(Cl)c(-c4cccc(O)c4)cc3c2OCCCN)c1"
units = "%"
experimental_result = 96

[[record]]
compound = "Cc1c(-c2ccc(O)cc2)n(Cc2ccc(OCCN3CCCCCC3)cc2)c2ccc(O)cc12"
units = "%"
experimental_result = 89

[[record]]
compound = "Cl.N#Cc1ccc2[nH]cc(CCCCN3CCN(c4ccc5oc(C(N)=O)cc5c4)CC3)c2c1 [VILAZODONE HYDROCHLORIDE]"
units = "%"
experimental_result = 76


###

# Test system: HEK-293T
# test.details: Multiplex assay against HEK293T
# Type: toxicity, cell-based
# run.conditions: human, 48 h, 10 µM, compound concentration 10 uM, replicate 1
Threshold check on Total Cell Count: strictly below 300 is true; on or above 300 is false.

[[record]]
compound = "C[C@@H](NCCCc1cccc(C(F)(F)F)c1)c1cccc2ccccc12.Cl [CINACALCET HYDROCHLORIDE]"
experimental_target = "HEK-293T"
label_class = "true"

[[record]]
compound = "CN1CCC[C@@H]1CCO[C@](C)(c1ccccc1)c1ccc(Cl)cc1.O=C(O)/C=C/C(=O)O [CLEMASTINE FUMARATE]"
experimental_target = "HEK-293T"
label_class = "true"

[[record]]
compound = "CC[C@H](C)C(=O)O[C@H]1C[C@@H](C)C=C2C=C[C@H](C)[C@H](CC[C@@H]3C[C@@H](O)CC(=O)O3)[C@H]21"
experimental_target = "HEK-293T"
label_class = "false"

[[record]]
compound = "CC(C)NCC(O)COc1ccc(CCOCC2CC2)cc1.Cl (stereo not drawn) [BETAXOLOL HYDROCHLORIDE]"
experimental_target = "HEK-293T"
label_class = "true"

[[record]]
compound = "C=CC(=O)Nc1ccc2ncnc(Nc3ccc(OCc4cccc(F)c4)c(Cl)c3)c2c1.Cc1ccc(S(=O)(=O)O)cc1"
experimental_target = "HEK-293T"
label_class = "false"

[[record]]
compound = "C=CC(=O)Nc1cccc(C(=O)Nc2ccc(Nc3cc(-c4[nH]c(SC)nc4C)ccn3)cc2)c1"
experimental_target = "HEK-293T"
label_class = "true"

[[record]]
compound = "NC(=O)Nc1cc(-c2cccc(F)c2)sc1C(=O)N[C@H]1CCCNC1"
experimental_target = "HEK-293T"
label_class = "true"

